TARGET SYSTEM: recombinant PI3Kδ kinase (Homo sapiens)
Sequence (O00329 whole entry): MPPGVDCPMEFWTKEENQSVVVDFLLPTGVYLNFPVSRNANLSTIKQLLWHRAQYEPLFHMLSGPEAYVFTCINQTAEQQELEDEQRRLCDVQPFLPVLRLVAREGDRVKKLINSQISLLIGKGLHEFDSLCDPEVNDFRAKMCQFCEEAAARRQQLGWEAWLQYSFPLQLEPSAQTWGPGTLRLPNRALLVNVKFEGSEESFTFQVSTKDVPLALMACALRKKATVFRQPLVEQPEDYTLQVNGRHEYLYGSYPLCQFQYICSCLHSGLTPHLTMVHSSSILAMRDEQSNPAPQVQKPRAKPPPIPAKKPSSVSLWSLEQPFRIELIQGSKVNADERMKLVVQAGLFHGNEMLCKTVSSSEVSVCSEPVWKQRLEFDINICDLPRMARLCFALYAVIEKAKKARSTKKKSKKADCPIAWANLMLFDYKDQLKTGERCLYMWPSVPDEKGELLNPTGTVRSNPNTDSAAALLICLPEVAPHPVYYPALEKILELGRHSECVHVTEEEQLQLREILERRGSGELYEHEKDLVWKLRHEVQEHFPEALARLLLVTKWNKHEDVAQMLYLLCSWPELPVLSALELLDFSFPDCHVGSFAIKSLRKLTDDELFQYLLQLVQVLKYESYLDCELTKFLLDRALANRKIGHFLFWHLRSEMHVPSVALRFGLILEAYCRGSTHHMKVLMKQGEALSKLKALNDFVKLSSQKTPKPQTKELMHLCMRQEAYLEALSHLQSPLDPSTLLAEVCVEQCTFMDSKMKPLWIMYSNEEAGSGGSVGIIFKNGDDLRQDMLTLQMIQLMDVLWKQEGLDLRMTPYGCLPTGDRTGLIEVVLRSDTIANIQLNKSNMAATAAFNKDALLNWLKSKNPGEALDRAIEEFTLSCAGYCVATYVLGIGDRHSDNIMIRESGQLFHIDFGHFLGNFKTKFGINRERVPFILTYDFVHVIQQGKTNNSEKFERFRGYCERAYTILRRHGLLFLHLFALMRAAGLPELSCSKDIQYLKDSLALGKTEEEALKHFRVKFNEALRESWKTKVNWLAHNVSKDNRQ
Sequence (P27986 whole entry partner): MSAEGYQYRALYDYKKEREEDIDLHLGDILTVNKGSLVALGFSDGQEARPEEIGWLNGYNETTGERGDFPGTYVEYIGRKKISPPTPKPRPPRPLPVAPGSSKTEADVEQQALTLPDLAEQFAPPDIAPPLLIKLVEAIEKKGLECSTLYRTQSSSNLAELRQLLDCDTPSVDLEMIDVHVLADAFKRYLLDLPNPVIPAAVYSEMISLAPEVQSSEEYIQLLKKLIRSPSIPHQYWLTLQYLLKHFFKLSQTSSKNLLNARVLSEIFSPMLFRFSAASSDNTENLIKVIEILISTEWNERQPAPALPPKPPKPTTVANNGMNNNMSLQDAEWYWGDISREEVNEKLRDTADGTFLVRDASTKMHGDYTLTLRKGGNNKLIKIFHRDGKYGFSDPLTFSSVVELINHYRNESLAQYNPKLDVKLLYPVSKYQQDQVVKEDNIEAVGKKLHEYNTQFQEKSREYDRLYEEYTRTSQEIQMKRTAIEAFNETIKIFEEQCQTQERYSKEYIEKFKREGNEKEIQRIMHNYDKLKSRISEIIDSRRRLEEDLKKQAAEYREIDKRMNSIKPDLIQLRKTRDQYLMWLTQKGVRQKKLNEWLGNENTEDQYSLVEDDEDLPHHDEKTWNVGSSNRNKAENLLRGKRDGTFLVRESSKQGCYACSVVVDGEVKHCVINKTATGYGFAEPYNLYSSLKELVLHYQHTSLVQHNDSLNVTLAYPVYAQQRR
METHOD NOTES: Cell free PI3Kδ kinase activity, ADP-Glo chemiluminescence assay
Assay type: biochemical
CONDITIONS: 15 hit compounds from NCI database; chemiluminescence method; read-out: PI3Kδ IC50
pIC50: −log10 of the molar value.
EXPERIMENTAL READOUT: pIC50

Examples with answers:
>  <COMPOUND>
C/C(=N\Nc1cn[nH]c(=O)c1Br)c1ccccc1 [Compound 10]

>  <pIC50>
4.72

$$$$
>  <COMPOUND>
O=C1c2ccccc2-c2cc(Br)c(NC(=O)C(F)(F)F)cc21 [Compound 80144]

>  <pIC50>
3.09

$$$$
>  <COMPOUND>
COc1cc(OC)c(OC)cc1/C=C/c1ccnc2ccccc12 [Compound 80756]

>  <pIC50>
3.72

$$$$
>  <COMPOUND>
CCN(CC)CCOc1nc2c(c(=O)n(C)c(=O)n2C)n1C [Compound 14317]

>  <pIC50>
4.55

$$$$
>  <COMPOUND>
CCOC(=O)Nc1ccc2c(c1Cl)C(=O)c1ccccc1C2=O [Compound 39951]

>  <pIC50>
3.28

$$$$
>  <COMPOUND>
CSc1cc2c(cc1NC(C)=O)C(=O)c1cc(F)ccc1-2 [Compound 109638]

>  <pIC50>
3.77

$$$$
>  <COMPOUND>
COc1c2c(c3c(c1OC)c(=O)c1ccccc1n3C)OCO2 [Compound 34758]

>  <pIC50>
3.32

$$$$
>  <COMPOUND>
CC(=O)Nc1cc2c(cc1Br)-c1ccc(F)cc1C2=O [Compound 73075]

>  <pIC50>
3.61

$$$$

P. CC(=O)Nc1cc2c(cc1Cl)-c1ccc(Cl)cc1C2=O [Compound 57442]
Q. CC/C(=N\Nc1cn[nH]c(=O)c1Br)c1ccccc1 [Compound 9]
query: I'd appreciate it if you could identify which of P and Q has the greater pIC50. // return label of chosen record
result: Q
(Q: 4.14, P: 3.30)

* * *

TARGET SYSTEM: PI3Kβ (Homo sapiens, UniProt P42338)
Sequence (P42338 whole entry, canonical isoform): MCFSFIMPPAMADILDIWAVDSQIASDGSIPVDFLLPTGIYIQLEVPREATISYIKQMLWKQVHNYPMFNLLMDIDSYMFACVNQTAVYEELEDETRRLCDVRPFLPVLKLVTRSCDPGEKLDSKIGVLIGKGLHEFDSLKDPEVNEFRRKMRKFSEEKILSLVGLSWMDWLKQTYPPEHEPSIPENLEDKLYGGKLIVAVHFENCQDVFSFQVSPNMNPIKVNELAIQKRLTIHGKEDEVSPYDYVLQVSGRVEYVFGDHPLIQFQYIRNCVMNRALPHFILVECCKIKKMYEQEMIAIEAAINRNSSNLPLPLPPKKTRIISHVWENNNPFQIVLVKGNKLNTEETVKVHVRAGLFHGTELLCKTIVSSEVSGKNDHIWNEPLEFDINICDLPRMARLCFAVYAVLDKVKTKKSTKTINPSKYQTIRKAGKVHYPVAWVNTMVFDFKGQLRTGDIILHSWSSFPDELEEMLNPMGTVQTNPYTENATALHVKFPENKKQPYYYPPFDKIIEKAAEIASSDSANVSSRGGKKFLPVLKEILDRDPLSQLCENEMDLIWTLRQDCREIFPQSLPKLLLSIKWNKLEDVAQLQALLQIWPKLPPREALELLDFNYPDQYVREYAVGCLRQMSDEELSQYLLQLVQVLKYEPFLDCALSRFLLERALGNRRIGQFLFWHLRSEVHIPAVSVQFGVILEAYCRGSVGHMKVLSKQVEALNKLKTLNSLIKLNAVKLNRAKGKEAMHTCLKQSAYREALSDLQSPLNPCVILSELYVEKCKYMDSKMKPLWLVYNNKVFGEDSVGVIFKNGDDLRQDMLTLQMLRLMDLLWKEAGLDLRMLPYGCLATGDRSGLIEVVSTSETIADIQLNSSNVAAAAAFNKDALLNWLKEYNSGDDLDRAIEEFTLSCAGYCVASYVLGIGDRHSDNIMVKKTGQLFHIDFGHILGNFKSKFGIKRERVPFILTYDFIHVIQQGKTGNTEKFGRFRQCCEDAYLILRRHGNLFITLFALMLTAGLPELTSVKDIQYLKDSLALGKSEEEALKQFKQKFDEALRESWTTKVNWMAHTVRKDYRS
Sequence (P27986 whole entry partner, canonical isoform): as the sequence (P27986 whole entry partner) above
METHOD NOTES: PI3K isoform selectivity, chemiluminescence kinase assay (β)
CONDITIONS: isoform selectivity experiment
EXPERIMENTAL READOUT: IC50 (µM)
Report as a plain number; the unit µM is understood.

Form: compound = C/C(=N\Nc1cn[nH]c(=O)c1Br)c1ccccc1 [Compound 10] ; IC50 = 188

Source listed as paper PMC6928688.
